Target: Shiga toxin 2 (Escherichia coli O157:H7) (UniProt P09385+P09386)
Assay: E. coli 0.157:H7 Shiga Toxin SOP - stx2 screening assay
Format: functional
Set-up: scale not given: direction of the effect not stated beside the values
Conditions: 30 µM
readout.label: Percent Effect (%)

- compound: "Cc1nn(-c2ccccc2)nc1C(=O)N1CCCC1c1cnn(C)c1 (stereo unspecified)"
  unit.abbreviation: "%"
  readout.value: 18.4
- compound: "CCN1CCN(C(=O)c2cc(C(=O)OC)nn2-c2ccccc2)CC1"
  unit.abbreviation: "%"
  readout.value: 26.1
- compound: "Cc1nc(CCCNC(=O)C2CC(=O)N(C(C)(C)C)C2)sc1C (stereo unspecified)"
  unit.abbreviation: "%"
  readout.value: -11.5
- compound: "NC(=O)c1cc(C2CCCN(C(=O)CCc3cscn3)C2)n[nH]1 (stereo unspecified)"
  unit.abbreviation: "%"
  readout.value: -14.1
- compound: "Cc1nn(C)c(N2CCOCC2)c1CNCc1ccnc(N(C)C)c1"
  unit.abbreviation: "%"
  readout.value: 25.6
- compound: "Cc1ccsc1C(=O)N1CC(C(=O)N2CCOCC2)C2(CCOCC2)C1 (stereo unspecified)"
  unit.abbreviation: "%"
  readout.value: -8.92
- compound: "O=C(NCc1ccc(-n2cncn2)nc1)c1ccoc1"
  unit.abbreviation: "%"
  readout.value: -9.83
- compound: "Cc1cccc(C(=O)N2CCCCC2c2ccc(CN(C)C)cc2)n1 (stereo unspecified)"
  unit.abbreviation: "%"
  readout.value: 13.7
- compound: "O=C(NCc1cc(O)ncn1)C1CCOc2ccccc2C1 (stereo unspecified)"
  unit.abbreviation: "%"
  readout.value: 16
- compound: "CC(C)c1nccn1C1CCCN(C(=O)c2cnn(C)c2C2CC2)C1 (stereo unspecified)"
  unit.abbreviation: "%"
  readout.value: 28.9
- compound: "Cc1ccccc1OCCC(=O)N1CCCC(n2cncn2)C1 (stereo unspecified)"
  unit.abbreviation: "%"
  readout.value: 2.85

###

Target: Aspartate--tRNA(Asp/Asn) ligase (Mycobacterium tuberculosis (strain ATCC 25618 / H37Rv)); also: in the data most compounds retested in dose-response had high values
Sequence (whole entry): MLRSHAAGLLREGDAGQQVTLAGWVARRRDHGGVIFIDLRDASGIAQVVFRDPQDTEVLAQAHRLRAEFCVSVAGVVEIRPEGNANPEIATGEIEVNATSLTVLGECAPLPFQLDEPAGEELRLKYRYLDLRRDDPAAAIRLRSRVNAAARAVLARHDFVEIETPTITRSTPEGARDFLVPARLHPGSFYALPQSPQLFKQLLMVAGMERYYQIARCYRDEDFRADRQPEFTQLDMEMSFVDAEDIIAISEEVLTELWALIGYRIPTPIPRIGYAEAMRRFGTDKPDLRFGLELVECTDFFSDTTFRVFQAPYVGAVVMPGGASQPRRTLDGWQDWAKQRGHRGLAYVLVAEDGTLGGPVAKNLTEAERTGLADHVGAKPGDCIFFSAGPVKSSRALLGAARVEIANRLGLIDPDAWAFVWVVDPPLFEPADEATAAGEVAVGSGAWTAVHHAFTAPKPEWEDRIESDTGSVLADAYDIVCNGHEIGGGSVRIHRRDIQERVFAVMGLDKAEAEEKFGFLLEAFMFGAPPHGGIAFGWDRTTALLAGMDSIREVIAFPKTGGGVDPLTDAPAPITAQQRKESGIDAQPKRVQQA
Assay: Assay for Asp RNA synthetase-1 from Mycobacterium tuberculosis
Type: functional
Design: scale not given: direction of the effect not stated beside the values
Conditions: 30 µM
Readings of Percent Effect for the listed molecules
readout.label: Percent Effect (%)

- molecule: "NC(=O)CN1CC2(CCC1=O)CCN(Cc1cc(F)ccc1Cl)CC2"
  readout.value: 0.126
- molecule: "CNC(=O)c1ccc(C(=O)N2CCCC(n3cc(C)cn3)C2)cn1 (stereo not given)"
  readout.value: -5.95
- molecule: "COCCc1noc(CNCC2CCCN2c2cccnn2)n1 (stereo not given)"
  readout.value: 4.93
- molecule: "COc1ccc(C)cc1CNCc1ccc(-n2nc(C)cc2C)nc1"
  readout.value: -2.68
- molecule: "COc1ncc(C2(O)CCN(Cc3c(F)cccc3F)CC2)c(OC)n1"
  readout.value: 2.49
- molecule: "CCN1CCC(c2nc3ccc(NC(C)C)cn3n2)CC1"
  readout.value: 2.52
- molecule: "c1cc(CN2CCN(Cc3cscn3)CC2)cs1"
  readout.value: 1.38
- molecule: "COCc1n[nH]/c(=N/C(=O)COc2cnc(C)cc2O)s1"
  readout.value: -2.13
- molecule: "COCCNC(=O)NCCc1ccn(-c2ccccc2)n1"
  readout.value: -4.41
- molecule: "Cc1nc(CN2CCN(Cc3ccoc3)Cc3cccnc32)cs1"
  readout.value: 4.04
- molecule: "Cc1ncc2c(n1)CN(CC(=O)Nc1nncs1)CC2"
  readout.value: -3.23
- molecule: "Cc1noc(C)c1CN1CC[C@H]2OCC[C@@H](C(=O)N3CCCO3)[C@@H]2C1"
  readout.value: -1.14
- molecule: "Cc1cc(C)c(CNC(=O)NCc2ccc3c(c2)CCC3)c(=O)[nH]1"
  readout.value: -4.97
- molecule: "O=C(NCCCN1CCOCC1)c1ccn(-c2ccc3ccccn23)n1"
  readout.value: 3.71
- molecule: "c1nc2n(n1)CC(NCc1csc(-c3ccsc3)n1)CC2 (stereo not given)"
  readout.value: -1.92
- molecule: "CCc1n[nH]c(C2CN(C(=O)c3csnn3)CCO2)n1 (stereo not given)"
  readout.value: 1.53
- molecule: "CN(Cc1ccc(Cl)c(Cl)c1)C(=O)CNC(N)=O"
  readout.value: 0.719
- molecule: "Cc1cc(C)n(CC2CN(Cc3cccc(C(N)=O)c3)CCO2)n1 (stereo not given)"
  readout.value: -8.8
- molecule: "c1ncn(CC2CCCN2Cc2cn3ccsc3n2)n1 (stereo not given)"
  readout.value: -3.37
- molecule: "CN1CCN(CC2CC2)C(=O)c2cnc(N3CCCC3)nc21"
  readout.value: -0.103
- molecule: "CCc1nc(CN(C)CC2CCN(CC(C)O)CC2)no1 (stereo not given)"
  readout.value: -3.85
- molecule: "COc1cc(C(C)=O)ccc1OCC(=O)N(C)Cc1cnn(C)c1"
  readout.value: -4.92
- molecule: "Cc1nccn1-c1cc(CNC(=O)CCC2CCCO2)ccn1 (stereo not given)"
  readout.value: 2.98
- molecule: "Cc1oc(C(=O)O)cc1S(=O)(=O)Nc1ccc(Cl)c(F)c1"
  readout.value: 1.64
- molecule: "Cc1cc2c(=O)n3c(nc2s1)CCN(Cc1cnc(C(C)C)nc1)CC3"
  readout.value: 6.6
